Task for the reader: assign each of the following binders its reported pKd.
- experimental target: T1, human TfR ectodomain fused to a mouse IgG1 Fc fragment (human, UniProt P02786 89-760)
- T1 construct: extracellular domain; ectodomain fused to the N-terminal end of the Fc, made in-house; not shown: mouse IgG1 Fc fragment
- T1 sequence (P02786 89-760): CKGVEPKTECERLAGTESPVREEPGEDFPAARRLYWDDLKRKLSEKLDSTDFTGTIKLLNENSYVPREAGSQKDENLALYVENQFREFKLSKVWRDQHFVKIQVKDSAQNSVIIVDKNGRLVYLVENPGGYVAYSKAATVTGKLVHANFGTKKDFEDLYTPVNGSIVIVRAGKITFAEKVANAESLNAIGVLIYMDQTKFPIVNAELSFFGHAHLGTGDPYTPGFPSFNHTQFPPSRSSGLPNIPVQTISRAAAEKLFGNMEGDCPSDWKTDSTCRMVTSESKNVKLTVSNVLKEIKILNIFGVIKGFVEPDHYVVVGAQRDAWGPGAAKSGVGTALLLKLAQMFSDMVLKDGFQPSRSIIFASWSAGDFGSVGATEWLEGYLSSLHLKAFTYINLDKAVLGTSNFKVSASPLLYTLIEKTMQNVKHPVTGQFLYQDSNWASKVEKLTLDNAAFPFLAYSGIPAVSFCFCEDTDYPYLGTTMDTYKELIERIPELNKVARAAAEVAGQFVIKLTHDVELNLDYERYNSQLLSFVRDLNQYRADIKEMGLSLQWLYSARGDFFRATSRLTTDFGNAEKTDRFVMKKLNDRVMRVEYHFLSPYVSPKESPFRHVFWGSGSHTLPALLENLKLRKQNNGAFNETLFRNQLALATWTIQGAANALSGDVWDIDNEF
- assay overview: SPR, at equilibrium
pKd here is simply -log10 of the concentration when that concentration is written in mol/L.

Problem: Look up pKd for this binder: B8^V33 (VHH) VHH: EVQLVESGGGVVQPGGSLRLSCAASGEIFSINFMRWYRQAPGKQREWVAGFTRDGSTNYPDSAKGRFTISRDNAKNTVYLQIDSLKPEDTAVYYCYMLKTWGQGTQVTVSS
Solution: 7.33

Problem: // pKd lookup, key: C5^V16h20 (VHH) VHH: EVQLVESGGGVVQPGGSLRLSCAASGTDFSINFIRWYRQAPGKGLEFVAGFTATGNTNYADSVKGRFTISRDNAKNAVYLQMNSLRPEDTAVYYCYILDKWGQGTQVTVSS
Solution: 6.94

Problem: I have this binder here, C5^h19 (VHH) VHH: EVQLVESGGGVVQPGGSLRLSCAASGTDFSINFIRWYRQAPGKQREFVAGFTATGNTNYADSVKGRFTISRDNAKNTLYLQMNSLRPEDTAVYYCYMLDKWGQGTQVTVSS , and I need its recorded pKd.
Solution: 7.88

Problem: # lookup: pKd of C5^V30 (VHH) VHH: EVQLVESGGGVVQPGGSLKLSCVASGTDKSINFIRWYRQAPGKQREFVAGFTATGNTNYADSMKGRFTISRDNTKNAVYLQIDSLKPEDTAVYYCYMLDKWGQGTQVTVSS
Solution: 6.95
